- tested-target: full-length human PRMT6 (Flag- and His-tagged) (Homo sapiens, UniProt Q96LA8)
- Sequence (Q96LA8 with tags, fused parts or gaps): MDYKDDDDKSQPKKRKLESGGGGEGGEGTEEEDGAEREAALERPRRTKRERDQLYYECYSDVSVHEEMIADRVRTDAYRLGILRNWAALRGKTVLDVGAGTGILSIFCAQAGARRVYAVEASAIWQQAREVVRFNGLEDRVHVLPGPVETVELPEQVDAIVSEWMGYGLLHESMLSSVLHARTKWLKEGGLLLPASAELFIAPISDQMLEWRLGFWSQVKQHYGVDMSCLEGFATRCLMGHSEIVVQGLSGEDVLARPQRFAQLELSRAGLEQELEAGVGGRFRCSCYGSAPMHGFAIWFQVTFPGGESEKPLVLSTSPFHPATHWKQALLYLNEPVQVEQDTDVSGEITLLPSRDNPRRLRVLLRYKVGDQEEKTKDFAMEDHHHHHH
- assay-protocol: PRMT6 Biochemical Assay (3H-SAM Flashplate, peptide substrate)
- test-context: single experiment or average of multiple experiments; read-out: Biochemical IC50 PRMT6
recorded-endpoint: IC50 (nM)

INSERT INTO measurements (compound, tested_target, test_value) VALUES
  ('CNCCN(C)Cc1c[nH]nc1C1CCC2(CCNC2=O)CC1 (stereo not drawn) [Compound 176]', 'full-length human PRMT6 (Flag- and His-tagged) (Homo sapiens, UniProt Q96LA8)', 36.4);

a. CNCCN(C)Cc1c[nH]nc1[C@H]1CC[C@@]2(CCN(Cc3ccc(OCCOC)cc3)C2=O)CC1 [Compound 120]
b. CNCCN(C)Cc1c[nH]nc1[C@H]1CC[C@@]2(CCC(C)(C)O2)CC1 [Compound 260]
c. CNCCN(C)Cc1c[nH]nc1C1CCC2(CCCC2)CC1 [Compound 48]
Challenge: Sort (3 compounds) by IC50: min first. Labels, ranked as asked.
Response given: c, a, b

---

- tested-target: full-length human PRMT6 (Flag- and His-tagged) (Homo sapiens)
- assay-protocol: PRMT6 Biochemical Assay (3H-SAM Flashplate, peptide substrate)
- test-context: single experiment or average of multiple experiments; read-out: Biochemical IC50 PRMT6
pIC50: −log10 of the molar value. Where a name gives a salt, the structure may show the parent alone.
recorded-endpoint: pIC50

Use these answered entries as a reference point.
INSERT INTO results (compound, test_value) VALUES
  ('CNCCN(C)Cc1c[nH]nc1C#Cc1ccc(C(C)(C)C)cc1', 7.40),
  ('CNCCN(C)Cc1c[nH]nc1[C@H]1CC[C@H](N(CCOC)C(=O)CC(C)C)CC1', 7.32),
  ('CNCCN(C)Cc1c[nH]nc1[C@H]1CC[C@H](O)CC1 [Compound 227, trifluoroacetate]', 7.75),
  ('CNCCN(C)Cc1c[nH]nc1[C@H]1CC[C@@H](N(CC(C)C)C(=O)CCOC)CC1', 7.32),
  ('CN(CCN)Cc1c[nH]nc1C1CCC(C)(C)CC1', 8.00),
  ('CNCCN(C)Cc1c[nH]nc1C1CCCC(COCCC(O)CO)C1 (centres unmarked)', 7.17);

A. CNCCN(C)Cc1c[nH]nc1[C@H]1CC[C@H](N(CC2CCOCC2)C(=O)CC(C)C)CC1
B. CCOC1CC(OCC)CC2(CCC(c3n[nH]cc3CN(C)CCNC)CC2)C1 (centres unmarked)
Challenge: Among A and B , which shows a numerically higher pIC50 result? Give the label of your selection.
Response given: B

---

- tested-target: full-length human PRMT6 (Flag- and His-tagged) (Homo sapiens, UniProt Q96LA8)
- assay-protocol: PRMT6 Biochemical Assay (3H-SAM Flashplate, peptide substrate)
- test-context: single experiment or average of multiple experiments; read-out: Biochemical IC50 PRMT6
pIC50: −log10 of the molar value.
recorded-endpoint: pIC50

Use these answered entries as a reference point.
INSERT INTO results (compound, tested_target, recorded_endpoint, test_value) VALUES
  ('CNCCN(C)Cc1c[nH]nc1C1CCC(CCOC)(CCOC)CC1', 'full-length human PRMT6 (Flag- and His-tagged) (Homo sapiens, UniProt Q96LA8)', 'pIC50', 7.07),
  ('CC(C)Cc1n[nH]cc1CN(C)CCN', 'full-length human PRMT6 (Flag- and His-tagged) (Homo sapiens, UniProt Q96LA8)', 'pIC50', 7.10),
  ('CNCCN(C)Cc1c[nH]nc1C1CCC2(CCOCC2)CC1', 'full-length human PRMT6 (Flag- and His-tagged) (Homo sapiens, UniProt Q96LA8)', 'pIC50', 7.80),
  ('CNCCN(C)Cc1c[nH]nc1C1CCC2(CCCCC2)OC1 (stereo not drawn)', 'full-length human PRMT6 (Flag- and His-tagged) (Homo sapiens, UniProt Q96LA8)', 'pIC50', 7.54),
  ('CNCCN(C)Cc1c[nH]nc1C1CCC(C)(C)[C@H](C(=O)OC)C1 (stereo partly drawn)', 'full-length human PRMT6 (Flag- and His-tagged) (Homo sapiens, UniProt Q96LA8)', 'pIC50', 7.41),
  ('Cc1n[nH]cc1CN(C)CCN', 'full-length human PRMT6 (Flag- and His-tagged) (Homo sapiens, UniProt Q96LA8)', 'pIC50', 5.18);

a. CNCCN(C)Cc1c[nH]nc1C1CCC2(CCC(C)(C)CC2)OC1 (stereo not drawn)
b. CCN(C(=O)CCC(C)C)[C@H]1CC[C@@H](c2n[nH]cc2CN(C)CCNC)CC1
c. CNCCN(C)Cc1c[nH]nc1[C@H]1CC[C@H](OCCOc2ccc(OC)cc2)CC1
d. COC/C=C/c1n[nH]cc1CN(C)CCN
e. CNCCN(C)Cc1c[nH]nc1[C@H]1CC[C@]2(CCN(Cc3cc(F)cc(F)c3)C2=O)CC1
Challenge: List from greatest to least pIC50. Labels, ranked as asked.
Response given: e, b, a, c, d
(e: 7.97, b: 7.77, a: 7.38, c: 6.97, d: 6.77)

I. CNCCN(C)Cc1c[nH]nc1C1CCC(C)(C)[C@@H](C(=O)OC)C1 (stereo partly drawn)
II. CNCCN(C)Cc1cn(C)nc1C1CCC2(CCCC2)CC1
III. CNCCN(C)Cc1c[nH]nc1C1CCC(=O)N(Cc2ccccc2)C1 (stereo not drawn)
IV. CNCCN(C)Cc1c[nH]nc1[C@H]1CCC(C)(C)[C@@H](C(=O)NCCCOC)C1
V. CCOC[C@H]1CC(c2n[nH]cc2CN(C)CCNC)C[C@H](COCC)C1 (stereo partly drawn)
Challenge: List from greatest to least pIC50. Labels, ranked as asked.
Response given: II, I, III, IV, V
(II: 7.76, I: 7.56, III: 7.20, IV: 6.83, V: 5.91)

a. CNCCN(C)Cc1c[nH]nc1C1CCC2(CC1)CC2
b. CCN1C(=O)N(C)CC12CCC(c1n[nH]cc1CN(C)CCNC)CC2 (stereo not drawn)
c. CN(CCN)Cc1c[nH]nc1/C=C/c1cccc(C(F)(F)F)c1
d. CNCCN(C)Cc1c[nH]nc1C1CCN(C(=O)Cc2ccccc2)CC1
Challenge: Sort (4 compounds) by pIC50: min first. Labels, ranked as asked.
Response given: c, b, a, d
(c: 6.82, b: 7.21, a: 7.45, d: 7.70)

1. CNCCN(C)Cc1c[nH]nc1[C@H]1CC[C@H](N(CCCOC)C(=O)CC(C)C)CC1
2. CNCCN(C)Cc1cnn(C)c1[C@H]1CC[C@]2(CC1)CC(C)(C)CO2
Challenge: Please indicate which has the smaller reported pIC50: 1 , or 2 . Give the label of your selection.
Response given: 2

---

- tested-target: full-length human PRMT8 isoform 1 (Homo sapiens)
- Sequence (Q9NR22 whole entry, canonical isoform): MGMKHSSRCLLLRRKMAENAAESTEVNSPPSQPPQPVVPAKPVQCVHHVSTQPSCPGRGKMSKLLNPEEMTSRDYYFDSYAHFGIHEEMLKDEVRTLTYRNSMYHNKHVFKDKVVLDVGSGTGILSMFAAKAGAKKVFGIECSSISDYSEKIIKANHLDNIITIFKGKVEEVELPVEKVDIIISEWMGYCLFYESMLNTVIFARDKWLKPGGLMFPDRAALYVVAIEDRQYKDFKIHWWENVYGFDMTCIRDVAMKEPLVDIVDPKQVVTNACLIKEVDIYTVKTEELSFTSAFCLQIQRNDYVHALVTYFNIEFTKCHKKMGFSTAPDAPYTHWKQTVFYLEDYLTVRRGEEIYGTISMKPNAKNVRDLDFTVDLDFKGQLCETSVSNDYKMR
- assay-protocol: PRMT8 Biochemical Assay (3H-SAM Flashplate, peptide substrate)
- test-context: single experiment or average of multiple experiments; read-out: Biochemical IC50 PRMT8
Counter-ions that a name gives are not always drawn.
recorded-endpoint: IC50 (nM)

INSERT INTO results (compound, test_value) VALUES
  ('CNCCN(C)Cc1c[nH]nc1[C@H]1CC[C@H](N(CCCOC)C(=O)CC(C)C)CC1 [Compound 241]', 48.9),
  ('CCN(C(=O)CCC(C)C)[C@H]1CC[C@H](c2n[nH]cc2CN(C)CCNC)CC1 [Compound 250]', 42.4),
  ('CN(CCN)Cc1c[nH]nc1C1CCC1 [Compound 26]', 5630),
  ('CNCCN(C)Cc1c[nH]nc1C1C[C@H](C(=O)N(C)CC(C)C)C(C)(C)[C@H](C(=O)N(C)CC(C)C)C1 (some centres unmarked) [Compound 267]', 5910),
  ('CNCCN(C)Cc1c[nH]nc1[C@H]1CC[C@@H](OC2CCCCC2)CC1 [Compound 140]', 33.9),
  ('CNCCN(C)Cc1c[nH]nc1[C@H]1CC[C@@H](C(=O)N(C)CCOc2ccccc2)CC1 [Compound 259]', 17.1),
  ('CN(CCN)Cc1c[nH]nc1C1CCC(N2CCOCC2)CC1 (centres unmarked) [Compound 43]', 11.6),
  ('CNCCN(C)Cc1c[nH]nc1C#Cc1ccc(F)cc1 [Compound 4]', 590);

1. CNCCN(C)Cc1c[nH]nc1C1CCC2(CCOCC2)CC1 [Compound 178]
2. CNCCN(C)Cc1c[nH]nc1C1CCC(O)C2(CCCC2)C1 (centres unmarked) [Compound 182]
Challenge: Please indicate which has the smaller reported IC50: 1 , or 2 . Give the label of your selection.
Response given: 1
(1: 20.5 nM, 2: 32.3 nM)

1. CNCCN(C)Cc1c[nH]nc1[C@H]1CC[C@H](N(CCOC)C(=O)CCOc2ccccc2)CC1 [Compound 230]
2. CNCCN(C)Cc1c[nH]nc1C#Cc1ccccc1 [Compound 3]
Challenge: Please indicate which has the smaller reported IC50: 1 , or 2 . Give the label of your selection.
Response given: 1
(1: 25.7 nM, 2: 950 nM)

1. CNCCN(C)Cc1cnn(C)c1[C@H]1CC[C@@]2(CC1)CC(C)(C)CO2 [Compound 245, trifluoroacetic acid salt]
2. CNCCN(C)Cc1c[nH]nc1C1CCC(C)(C)C(C(=O)NCC(C)C)C1 (centres unmarked) [Compound 90]
3. CNCCN(C)Cc1c[nH]nc1[C@H]1CC[C@H](OCCOc2ccccc2)CC1 [Compound 187]
4. CNCCN(C)Cc1c[nH]nc1[C@H]1CC[C@H](N(CC(C)C)C(=O)CCCOC)CC1 [Compound 248]
5. CNCCN(C)Cc1c[nH]nc1/C=C/c1ccc(OC)cc1 [Compound 7]
Challenge: Sort (5 compounds) by IC50: min first. Labels, ranked as asked.
Response given: 1, 4, 2, 3, 5
(1: 18.3 nM, 4: 28.2 nM, 2: 117 nM, 3: 185 nM, 5: 520 nM)

The reported numbers originate from patent US11512053B2.
